Data credit: ChEMBL document CHEMBL5104132

# TARGET_OR_TEST_SYSTEM: dsDNA
# TEST_PROTOCOL: Binding affinity to human double stranded DNA by SPR analysis
ENDPOINT_LABEL: pKd
Entry type: numeric. Quantity: pKd, the -log10 of concentration in molar units.

Ask: Value wanted: pKd (dsDNA) of entry NC[C@H]1O[C@H](O[C@H]2[C@H](O)[C@@H](O[C@H]3O[C@H](CO)[C@@H](O)[C@H](N)[C@H]3O)[C@H](N)C[C@@H]2N)[C@H](N)C[C@@H]1O [TOBRAMYCIN]
Reply: 4.74

---

# System: i-motif DNA
# TEST_PROTOCOL: Displacement of thiazole orange from human telomeric 1ELN i-motif DNA at 10 equiv. at pH 7.4 by fluorescent intercalator displacement assay
# Format: nucleic-acid assay
Can you tell me Activity for the items I'm about to list?

Ask: GET /values?readout=Activity&item= OC[C@H]1O[C@@H](O[C@@H]2[C@@H](CO)O[C@](O)(CO)[C@H]2O)[C@H](O)[C@@H](O)[C@H]1O
Reply: -54%

Ask: Which Activity value belongs to COC(=O)C1=CO[C@@H](O[C@@H]2O[C@H](CO)[C@@H](O)[C@H](O)[C@H]2O)[C@@H]2C(CO)=CC[C@H]12 ?
Reply: -32%

Ask: Query (compound): O=c1c(-c2ccc(O)cc2)coc2cc(O[C@@H]3O[C@H](CO)[C@@H](O)[C@H](O)[C@H]3O)cc(O)c12 ; field requested: Activity
Reply: 16.2%

Ask: Which value of Activity has been reported for O=C(O)C1=CO[C@@H](O[C@@H]2O[C@H](CO)[C@@H](O)[C@H](O)[C@H]2O)[C@@H]2C(CO)=CC[C@H]12 in the records?
Reply: 2.6%

Ask: # Activity lookup, item O=c1c(-c2ccc(O)cc2)coc2cc(O[C@@H]3O[C@H](CO)[C@@H](O)[C@H](O)[C@H]3O)ccc12
Reply: 14.9%

Ask: What does the record list as Activity for O=C(O)[C@H]1O[C@@H](Oc2cc3oc(-c4ccccc4)cc(=O)c3c(O)c2O)[C@H](O)[C@@H](O)[C@@H]1O ?
Reply: -3.8%

---

# Test system: Quadruplex DNA
# TEST_PROTOCOL: Displacement of thiazole orange from human telomeric IKF1 G4 quadruplex DNA at 100 equiv. at pH 7.4 by fluorescent intercalator displacement assay
# Format: nucleic-acid assay
Classify as follows. Reported Activity greater than or equal to 30%: Y. Reported Activity below: N.

Ask: Activity >= 30% for OC[C@H]1O[C@@H](O[C@@H]2[C@@H](CO)O[C@](O)(CO)[C@H]2O)[C@H](O)[C@@H](O)[C@H]1O ?
Reply: N

Ask: Record O=C(O)C1=CO[C@@H](O[C@@H]2O[C@H](CO)[C@@H](O)[C@H](O)[C@H]2O)[C@@H]2C(CO)=CC[C@H]12 ; criterion: Activity no lower than 30%. Met?
Reply: N

Ask: I'd appreciate it if you could say whether O=c1c(-c2ccc(O)cc2)coc2cc(O[C@@H]3O[C@H](CO)[C@@H](O)[C@H](O)[C@H]3O)cc(O)c12 has Activity at least equal to 30%.
Reply: N

Ask: In plain terms: is recorded Activity at least 30% for O=c1c(-c2ccc(O)cc2)coc2cc(O[C@@H]3O[C@H](CO)[C@@H](O)[C@H](O)[C@H]3O)ccc12 ?
Reply: N

Ask: Say whether O=C(O)[C@H]1O[C@@H](Oc2cc3oc(-c4ccccc4)cc(=O)c3c(O)c2O)[C@H](O)[C@@H](O)[C@@H]1O shows Activity of 30% or more.
Reply: Y

Ask: Please indicate if the recorded Activity for COC(=O)C1=CO[C@@H](O[C@@H]2O[C@H](CO)[C@@H](O)[C@H](O)[C@H]2O)[C@@H]2C(CO)=CC[C@H]12 meets or exceeds 30%.
Reply: N
